FYI, the data here is from PubChem BioAssay AID1963845.

System: 429239-143-T-J1-PDC complex spheroid viability;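 also: luminescence signal used as surrogate measure of viable cells; spheroids exposed to compounds for seven days before readout; 100% = DMSO vehicle control viability as luminescence relative to vehicle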
method: Anticancer human tumor 429239-143-T-J1-PDC patient-derived small cell lung carcinoma cell line growth inhibition [POLQ]
stated.conditions: second compound 0.316 µM; first compound 10 µM; active compounds read low
Overview of reported viability, T/C across a group of compounds:
property.label: viability, T/C

CC(C)n1c(=O)n(C)c2cnc3cc(F)c(-c4ccc(OCCCN5CCCCC5)nc4)cc3c21 + COC1C(OC(N)=O)C(O)C(Oc2ccc3c(O)c(NC(=O)c4ccc(O)c(CC=C(C)C)c4)c(=O)oc3c2C)OC1(C)C: 72.5%
CCCS(=O)(=O)Nc1ccc(F)c(C(=O)c2c[nH]c3ncc(-c4ccc(Cl)cc4)cc23)c1F + Cc1cccc(N(C)C(=O)C2C(O)CCN2c2nc(C)cc(C(F)(F)F)c2C#N)c1: 79%
CNCc1ccc(-c2[nH]c3cc(F)cc4c3c2CCNC4=O)cc1 + Cc1cccc(N(C)C(=O)C2C(O)CCN2c2nc(C)cc(C(F)(F)F)c2C#N)c1: 22.7%
CCc1cc2c(N3CCc4c(cc(Cn5ccnc5)cc4-c4cn(C)nc4C(F)(F)F)C3=O)cc(C)nc2c(OC)n1 + Nc1ccc(C#CCN(C(=O)Cc2ncc(C(F)(F)F)cc2C(F)(F)F)c2ccc(F)cc2)nn1: 48.1%
O=C(c1cc(Cc2n[nH]c(=O)c3ccccc23)ccc1F)N1CCN(C(=O)C2CC2)CC1 + COC1C(OC(N)=O)C(O)C(Oc2ccc3c(O)c(NC(=O)c4ccc(O)c(CC=C(C)C)c4)c(=O)oc3c2C)OC1(C)C: 18.2%
O=C(Nc1ccc(O)c(NS(=O)(=O)c2ccc(F)cc2)c1)c1ccc(-c2ccccc2)cc1 + Cc1cccc(N(C)C(=O)C2C(O)CCN2c2nc(C)cc(C(F)(F)F)c2C#N)c1: 107%
C#Cc1c(F)ccc2cc(O)cc(-c3ncc4c(N5CC6CCC(C5)N6)nc(OCC56CCCN5CC(F)C6)nc4c3F)c12 (stereo not given) + Cc1cccc(N(C)C(=O)C2C(O)CCN2c2nc(C)cc(C(F)(F)F)c2C#N)c1: 93.5%
O=c1[nH]cc(F)c(=O)[nH]1 + COC1C(OC(N)=O)C(O)C(Oc2ccc3c(O)c(NC(=O)c4ccc(O)c(CC=C(C)C)c4)c(=O)oc3c2C)OC1(C)C: 40.9%
COc1cc2cc(C(=O)CCC(=O)O)sc2cc1OC + COC1C(OC(N)=O)C(O)C(Oc2ccc3c(O)c(NC(=O)c4ccc(O)c(CC=C(C)C)c4)c(=O)oc3c2C)OC1(C)C: 90.2%
O=c1[nH]cc(F)c(=O)[nH]1 + Cc1cccc(N(C)C(=O)C2C(O)CCN2c2nc(C)cc(C(F)(F)F)c2C#N)c1: 50.8%
O=C(Nc1ccc(O)c(NS(=O)(=O)c2ccc(F)cc2)c1)c1ccc(-c2ccccc2)cc1 + COC1C(OC(N)=O)C(O)C(Oc2ccc3c(O)c(NC(=O)c4ccc(O)c(CC=C(C)C)c4)c(=O)oc3c2C)OC1(C)C: 64.4%
C=CC(=O)N1CCN(c2nc(=O)n(-c3c(C)ccnc3C(C)C)c3nc(-c4c(O)cccc4F)c(F)cc23)C(C)C1 (stereo not given) + COC1C(OC(N)=O)C(O)C(Oc2ccc3c(O)c(NC(=O)c4ccc(O)c(CC=C(C)C)c4)c(=O)oc3c2C)OC1(C)C: 101%
COc1cc(C2c3cc4c(cc3C(OC3OC5COC(C)OC5C(O)C3O)C3COC(=O)C23)OCO4)cc(OC)c1O (stereo not given) + Cc1cccc(N(C)C(=O)C2C(O)CCN2c2nc(C)cc(C(F)(F)F)c2C#N)c1: 15.9%
CC1COCCN1c1cc(C2(O)CC3CCC(C2)O3)c2cnn(-c3ccn[nH]3)c2n1 (stereo not given) + Nc1ccc(C#CCN(C(=O)Cc2ncc(C(F)(F)F)cc2C(F)(F)F)c2ccc(F)cc2)nn1: 2.33%
CC1COCCN1c1cc(C2(S(C)(=N)=O)CC2)nc(-c2ccnc3[nH]ccc23)n1 (stereo not given) + COC1C(OC(N)=O)C(O)C(Oc2ccc3c(O)c(NC(=O)c4ccc(O)c(CC=C(C)C)c4)c(=O)oc3c2C)OC1(C)C: 17.3%
CCc1cc2c(N3CCc4c(cc(Cn5ccnc5)cc4-c4cn(C)nc4C(F)(F)F)C3=O)cc(C)nc2c(OC)n1 + COC1C(OC(N)=O)C(O)C(Oc2ccc3c(O)c(NC(=O)c4ccc(O)c(CC=C(C)C)c4)c(=O)oc3c2C)OC1(C)C: 40.4%
COc1ccc([C@@H](O)c2cc(-c3ncnc4cc(N5CCOCC5)ccc34)c(F)cc2Cl)nn1 + Nc1ccc(C#CCN(C(=O)Cc2ncc(C(F)(F)F)cc2C(F)(F)F)c2ccc(F)cc2)nn1: 45.5%
Nc1ccn(C2OC(CO)C(O)C2(F)F)c(=O)n1 (stereo not given) + Nc1ccc(C#CCN(C(=O)Cc2ncc(C(F)(F)F)cc2C(F)(F)F)c2ccc(F)cc2)nn1: 7.03%
CCc1cc2c(N3CCc4c(cc(Cn5ccnc5)cc4-c4cn(C)nc4C(F)(F)F)C3=O)ccnc2c(OC)n1 + Nc1ccc(C#CCN(C(=O)Cc2ncc(C(F)(F)F)cc2C(F)(F)F)c2ccc(F)cc2)nn1: 44.7%
CCc1cc2c(N3CCc4c(cc(Cn5ccnc5)cc4-c4cn(C)nc4C(F)(F)F)C3=O)ccnc2c(OC)n1 + Cc1cccc(N(C)C(=O)C2C(O)CCN2c2nc(C)cc(C(F)(F)F)c2C#N)c1: 56.6%
